# target.of.assay: UniProtKB Q14432
# Sequence (Q14432 whole entry): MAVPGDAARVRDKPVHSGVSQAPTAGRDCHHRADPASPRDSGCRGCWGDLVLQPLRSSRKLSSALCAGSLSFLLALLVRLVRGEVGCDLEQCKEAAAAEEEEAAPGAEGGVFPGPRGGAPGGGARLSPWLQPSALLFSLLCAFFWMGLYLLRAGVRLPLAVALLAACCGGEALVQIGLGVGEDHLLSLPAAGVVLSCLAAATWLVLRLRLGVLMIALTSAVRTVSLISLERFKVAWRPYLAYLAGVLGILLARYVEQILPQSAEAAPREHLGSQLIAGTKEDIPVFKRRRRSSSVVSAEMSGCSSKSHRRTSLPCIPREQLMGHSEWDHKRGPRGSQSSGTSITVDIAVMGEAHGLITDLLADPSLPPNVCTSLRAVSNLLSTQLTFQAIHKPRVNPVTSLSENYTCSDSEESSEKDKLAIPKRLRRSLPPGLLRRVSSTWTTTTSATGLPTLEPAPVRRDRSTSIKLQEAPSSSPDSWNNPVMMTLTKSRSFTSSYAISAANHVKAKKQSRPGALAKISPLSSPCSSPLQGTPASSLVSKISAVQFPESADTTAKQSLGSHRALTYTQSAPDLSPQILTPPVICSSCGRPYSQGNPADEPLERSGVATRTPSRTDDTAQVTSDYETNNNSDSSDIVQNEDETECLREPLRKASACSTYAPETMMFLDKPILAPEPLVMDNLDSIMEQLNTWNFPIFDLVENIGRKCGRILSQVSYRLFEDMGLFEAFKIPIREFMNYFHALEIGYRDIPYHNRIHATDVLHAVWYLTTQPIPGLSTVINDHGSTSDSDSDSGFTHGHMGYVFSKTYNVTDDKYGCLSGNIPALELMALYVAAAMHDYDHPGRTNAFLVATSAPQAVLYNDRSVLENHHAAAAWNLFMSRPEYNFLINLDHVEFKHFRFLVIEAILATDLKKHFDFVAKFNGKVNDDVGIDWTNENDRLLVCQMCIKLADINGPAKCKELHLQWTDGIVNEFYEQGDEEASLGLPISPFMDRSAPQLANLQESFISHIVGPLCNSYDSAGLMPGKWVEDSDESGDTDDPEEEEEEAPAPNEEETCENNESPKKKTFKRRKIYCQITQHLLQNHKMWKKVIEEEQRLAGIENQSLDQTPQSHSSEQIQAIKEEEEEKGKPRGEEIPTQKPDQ
# measurement.notes: Phosphodiesterase inhibition, purified PDE-III isozyme
# Assay type: biochemical
# condition.description: read-out: PDE-III IC50; PDE-III isolated from human platelets; 30°C, 30 minutes; [3H]-cAMP 0.1 µM and cAMP 0.1 µM; duplicates
Documented pIC50 across a set of compounds
# reply with the number alone; pIC50 is -log10 of concentration in mol/L

mol	target.of.assay	pIC50
CC(=O)Nc1ccc(C2=NNC(=O)C[C@H]2C)cc1	UniProtKB Q14432	7.03

Now for another entry.
### Prompt Reported pIC50 for UniProtKB Q14432, given C[C@@H]1CC(=O)NN=C1c1ccc(N)cc1 ?
### Response 5.30
